# Tested on: HCT-116
# Assay Explanation: NCI tumour cell line growth inhibition, 48 h
The source made the active and inactive calls. No stated cut-off is given here; in the data, active = GI50 up to about 1.1 µM and inactive = higher.
Value Kind: GI50

Can you look up the measured GI50 of c1csc(-c2nnc(C34CC5CC(CC(C5)C3)C4)o2)c1 for me?
32.2 µM (inactive)

Can you look up the measured GI50 of CCOc1cc(NC(C)=O)ccc1C(=O)NN1C(=O)CSC1c1ccccc1 (stereo unspecified) for me?
> 100 µM (inactive)

Can you look up the measured GI50 of COc1c(CC(C)=O)c2ccccc2n1C(C)=O for me?
> 100 µM (inactive)

Can you look up the measured GI50 of C[N+]1(C)CCCC1C(=O)[O-] (stereo unspecified) for me?
> 100 µM (inactive)

Can you look up the measured GI50 of Cc1nc(Cc2n[nH]c(C)n2)n[nH]1 for me?
> 100 µM (inactive)

Can you look up the measured GI50 of CNC1NC(=O)c2ccccc2N1Cc1ccc(F)cc1 (stereo unspecified) for me?
> 100 µM (inactive)
